Hello, the source for this data is patent US9944678B2, in case you need it.

Molecular target: PD-1-Ig binding to PD-L1-TVMV-His (PD-L1-His) (Homo sapiens, UniProt Q9NZQ7)
Construct: hPDL1(19-239)-TVMV-His; TVMV protease cleavage site (C); made in house; host or cells: HEK293T cells
Sequence (Q9NZQ7 with tags, fused parts or gaps): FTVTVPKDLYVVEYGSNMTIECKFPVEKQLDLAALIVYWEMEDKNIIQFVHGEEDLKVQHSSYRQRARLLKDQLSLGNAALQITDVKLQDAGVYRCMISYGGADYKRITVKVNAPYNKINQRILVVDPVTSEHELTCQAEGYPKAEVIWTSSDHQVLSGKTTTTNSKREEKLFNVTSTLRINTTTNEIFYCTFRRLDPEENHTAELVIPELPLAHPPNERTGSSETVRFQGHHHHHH
Assay: PD-1/PD-L1 Homogenous Time-Resolved Fluorescence (HTRF) binding assay
Conditions: PD-1-Ig/PD-L1-His binding; numeric values
Positions of bridges follow the written chain, without caps; N, C: chain ends. Non-standard residues stand in square brackets, D forms with d. Residues, ends and D or L forms follow the SMILES beside them. Hyp = O=C(O)[C@@H]1C[C@@H](O)CN1; NMeNle = CCCC[C@H](NC)C(=O)O; NMeA = CN[C@@H](C)C(=O)O; Dab = NCC[C@H](N)C(=O)O; Dap = NC[C@H](N)C(=O)O; Ac3c = NC1(C(=O)O)CC1
value.kind: IC50
# number then unit; no other words

Tell me IC50 reported for CCCC[C@H]1C(=O)N(C)[C@@H](CCCC)C(=O)N[C@@H](CCCNC(=N)N)C(=O)NC(C(=O)NCC(N)=O)CSCC(=O)N[C@@H](Cc2ccc(O)cc2)C(=O)NC2(CC2)C(=O)N[C@@H](CC(N)=O)C(=O)N2CCC[C@H]2C(=O)N[C@@H](Cc2c[nH]cn2)C(=O)N[C@@H](CC(C)C)C(=O)N2C[C@H](O)C[C@H]2C(=O)N[C@@H](Cc2c[nH]c3ccccc23)C(=O)N[C@@H](CO)C(=O)N[C@@H](Cc2c[nH]c3ccccc23)C(=O)N1C (stereo partly drawn)
4.13 nM

Tell me IC50 reported for CCCC[C@H]1C(=O)N(C)[C@@H](CCCC)C(=O)N[C@@H](CC(C)C)C(=O)N[C@H](C(=O)NCC(N)=O)CSCC(=O)N[C@@H](Cc2ccc(O)cc2)C(=O)N(C)[C@@H](C)C(=O)N[C@@H](CC(N)=O)C(=O)N2CCC[C@H]2C(=O)N[C@@H](CN)C(=O)N[C@@H](CC(C)C)C(=O)N2C[C@H](O)C[C@H]2C(=O)N[C@@H](Cc2c[nH]c3ccccc23)C(=O)NC2(CC2)C(=O)N[C@@H](Cc2c[nH]c3ccccc23)C(=O)N1C [Example 9008] ({CH2CO}-Y[NMeA]NP[Dap]L[Hyp]W[Ac3c]W[NMeNle][NMeNle]LCG-NH2; thioether N-14)
3620 nM

Tell me IC50 reported for CCCC[C@H]1C(=O)N(C)[C@@H](CCCC)C(=O)NC2(CC2)C(=O)N[C@H](C(=O)NCC(N)=O)CSCC(=O)N[C@@H](Cc2ccc(O)cc2)C(=O)N(C)[C@@H](C)C(=O)N[C@@H](CC(N)=O)C(=O)N2CCC[C@H]2C(=O)N[C@@H](CN)C(=O)N[C@@H](CC(C)C)C(=O)N2C[C@H](O)C[C@H]2C(=O)N[C@@H](Cc2c[nH]c3ccccc23)C(=O)N[C@@H](CCN)C(=O)N[C@@H](Cc2c[nH]c3ccccc23)C(=O)N1C [Example 9006] ({CH2CO}-Y[NMeA]NP[Dap]L[Hyp]W[Dab]W[NMeNle][NMeNle][Ac3c]CG-NH2; thioether N-14)
40 nM

====

Molecular target: PD-1-Ig binding to PD-L1-TVMV-His (PD-L1-His) (Homo sapiens)
Construct: hPDL1(19-239)-TVMV-His; TVMV protease cleavage site (C); made in house; host or cells: HEK293T cells
Assay: PD-1/PD-L1 Homogenous Time-Resolved Fluorescence (HTRF) binding assay
Details: PD-1-Ig/PD-L1-His binding; numeric values
Starred links: 1 amine or outer side, 2 acyl side, 3 side chain; linkers in the order of their positions; H or OH if unused. Positions of bridges follow the written chain, without caps; N, C: chain ends. Non-standard residues stand in square brackets, D forms with d. Residues, ends and D or L forms follow the SMILES beside them. ξ: configuration not given here. Bta = N[C@@H](Cc1csc2ccccc12)C(=O)O; X3 = C[C@H]1CC1(N[*:1])C(=O)[*:2]; Hyp = O=C(O)[C@@H]1C[C@@H](O)CN1; NMeNle = CCCC[C@H](NC)C(=O)O; NMeA = CN[C@@H](C)C(=O)O; Dab = NCC[C@H](N)C(=O)O; Aib = CC(C)(N)C(=O)O; ξC = NC(CS)C(=O)O
value.kind: pIC50
Units for pIC50: none; it is -log10 of a concentration expressed in mol/L.

Tell me pIC50 reported for CCCC[C@H]1C(=O)N(C)[C@@H](CCCC)C(=O)N[C@@H](CC(C)C)C(=O)N[C@H](C(=O)NCC(N)=O)CSCC(=O)N[C@@H](Cc2ccc(O)cc2)C(=O)N(C)[C@@H](C)C(=O)N[C@@H](CC(N)=O)C(=O)N2CCC[C@H]2C(=O)NC(C)(C)C(=O)N[C@@H](CC(C)C)C(=O)N2C[C@H](O)C[C@H]2C(=O)N[C@@H](Cc2c[nH]c3ccccc23)C(=O)N[C@@H](CCN)C(=O)N[C@@H](Cc2c[nH]c3ccccc23)C(=O)N1C [Example 9011] ({CH2CO}-Y[NMeA]NP[Aib]L[Hyp]W[Dab]W[NMeNle][NMeNle]LCG-NH2; thioether N-14)
7.70

Tell me pIC50 reported for CCCC[C@H]1C(=O)N(C)[C@@H](CCCC)C(=O)N[C@@H](CCCNC(=N)N)C(=O)NC(C(=O)NCC(N)=O)CSCC(=O)N[C@@H](Cc2ccc(O)cc2)C(=O)N(C)[C@@H](C)C(=O)N[C@@H](CC(N)=O)C(=O)N2CCC[C@H]2C(=O)N[C@@H](Cc2cnc[nH]2)C(=O)N[C@@H](CC(C)C)C(=O)NC2(C[C@@H]2C)C(=O)N[C@@H](Cc2c[nH]c3ccccc23)C(=O)N[C@@H](CO)C(=O)N[C@@H](Cc2csc3ccccc23)C(=O)N1C (some centres unmarked) [Example 10005] ({CH2CO}-Y[NMeA]NPHL[X3]WS[Bta][NMeNle][NMeNle]R[ξC]G-NH2; thioether N-14)
6.00

====

Target: PD-1-Ig binding to PD-L1-TVMV-His (PD-L1-His) (Homo sapiens, UniProt Q9NZQ7)
Construct: hPDL1(19-239)-TVMV-His; TVMV protease cleavage site (C); made in house; host or cells: HEK293T cells
Test: PD-1/PD-L1 Homogenous Time-Resolved Fluorescence (HTRF) binding assay
Settings: PD-1-Ig/PD-L1-His binding; values given as range classes
Positions of bridges follow the written chain, without caps; N, C: chain ends. Non-standard residues stand in square brackets, D forms with d. Residues, ends and D or L forms follow the SMILES beside them. Hyp = O=C(O)[C@@H]1C[C@@H](O)CN1; NMeNle = CCCC[C@H](NC)C(=O)O; NMeA = CN[C@@H](C)C(=O)O; Dab = NCC[C@H](N)C(=O)O; Ac3c = NC1(C(=O)O)CC1
value.kind: IC50

Tell me IC50 reported for CCCC[C@H]1C(=O)N(C)[C@@H](CCCC)C(=O)N[C@@H](CC(C)C)C(=O)N[C@H](C(=O)NCC(N)=O)CSCC(=O)N[C@@H](Cc2ccc(O)cc2)C(=O)N(C)[C@@H](C)C(=O)N[C@@H](CC(N)=O)C(=O)N2CCC[C@H]2C(=O)NC2(CC2)C(=O)N[C@@H](CC(C)C)C(=O)N2C[C@H](O)C[C@H]2C(=O)N[C@@H](Cc2c[nH]c3ccccc23)C(=O)N[C@@H](CCN)C(=O)N[C@@H](Cc2c[nH]c3ccccc23)C(=O)N1C [Example 9012] ({CH2CO}-Y[NMeA]NP[Ac3c]L[Hyp]W[Dab]W[NMeNle][NMeNle]LCG-NH2; thioether N-14)
10 to 99 nM

====

Target: PD-1-Ig binding to PD-L1-TVMV-His (PD-L1-His) (Homo sapiens)
Construct: hPDL1(19-239)-TVMV-His; TVMV protease cleavage site (C); made in house; host or cells: HEK293T cells
Assay: PD-1/PD-L1 Homogenous Time-Resolved Fluorescence (HTRF) binding assay
Conditions: PD-1-Ig/PD-L1-His binding; values given as range classes
pIC50: −log10 of the molar value. Positions of bridges follow the written chain, without caps; N, C: chain ends. Non-standard residues stand in square brackets, D forms with d. Residues, ends and D or L forms follow the SMILES beside them. Hyp = O=C(O)[C@@H]1C[C@@H](O)CN1; NMeNle = CCCC[C@H](NC)C(=O)O; NMeA = CN[C@@H](C)C(=O)O; Dab = NCC[C@H](N)C(=O)O; Dap = NC[C@H](N)C(=O)O; Aib = CC(C)(N)C(=O)O
value.kind: pIC50

Tell me pIC50 reported for CCCC[C@H]1C(=O)N(C)[C@@H](CCCC)C(=O)N[C@@H](CC(C)C)C(=O)N[C@H](C(=O)NCC(N)=O)CSCC(=O)N[C@@H](Cc2ccc(O)cc2)C(=O)N(C)[C@@H](C)C(=O)NC(C)(C)C(=O)N2CCC[C@H]2C(=O)N[C@@H](CN)C(=O)N[C@@H](CC(C)C)C(=O)N2C[C@H](O)C[C@H]2C(=O)N[C@@H](Cc2c[nH]c3ccccc23)C(=O)N[C@@H](CCN)C(=O)N[C@@H](Cc2c[nH]c3ccccc23)C(=O)N1C [Example 9013] ({CH2CO}-Y[NMeA][Aib]P[Dap]L[Hyp]W[Dab]W[NMeNle][NMeNle]LCG-NH2; thioether N-14)
5.00 to 7.00
